assay_name: Total clearance in Sprague-Dawley rat at 5 mg/kg, iv
Format: ADME, organism-based
Parameters: dose 5 mg/kg, route intravenous
experimental_parameters: in vivo
measured_endpoint: clearance (mL/min/kg)

(P) COC(=O)N[C@@H](C)C(=O)N1CCN(n2c([C@H](C)N(C(=O)Nc3ccc(F)cc3)c3ccc(OC)cc3OC)nc3cc(F)ccc3c2=O)CC1
(Q) COc1ccc(N(C(=O)Nc2cccc(Cl)c2)C(C)c2nc3ccccc3c(=O)n2N2CCN(C)CC2)c(OC)c1 (configuration not stated)
Challenge: I'm curious, which of these has a smaller clearance number: P or Q ? Pick one; state its label.
Response given: Q
(Q: 83.3 mL/min/kg, P: 125 mL/min/kg)

###

Test system: Serum
assay_name: Protein binding in Sprague-Dawley rat serum
Type: ADME, cell-free
Parameters: concentration or dose not given beside the values
measured_endpoint: Activity (%)

>>> print(df.to_string())
                                   compound  tested_system  reading
0  COc1ccc(N(C(=O)Nc2ccc(F)cc2)C(C)c2nc3ccccc3c(=O)n2N2CCN(C)CC2)c(OC)c1 (stereo unspecified)          Serum       74
1  COc1ccc(N(C(=O)Nc2ccc(F)cc2)C(C)c2nc3ccccc3c(=O)n2N2CCN(C(=O)[C@@H]3CCCN3)CC2)c(OC)c1 (stereo partly specified)          Serum       77
2  COc1ccc(N(C(=O)Nc2cccc(Cl)c2)C(C)c2nc3ccccc3c(=O)n2N2CCN(C)CC2)c(OC)c1 (stereo unspecified)          Serum       98
3  COC(=O)N[C@@H](C)C(=O)N1CCN(n2c(C(C)N(C(=O)Nc3ccc(F)cc3)c3ccc(OC)cc3OC)nc3ccccc3c2=O)CC1 (stereo partly specified)          Serum       82
4  COC(=O)N[C@H](C)C(=O)N1CCN(n2c(C(C)N(C(=O)Nc3ccc(F)cc3)c3ccc(OC)cc3OC)nc3ccccc3c2=O)CC1 (stereo partly specified)          Serum       82
5  COC(=O)N[C@@H](C)C(=O)N1CCN(n2c([C@H](C)N(C(=O)Nc3ccc(F)cc3)c3ccc(OC)cc3OC)nc3cc(F)ccc3c2=O)CC1          Serum       87

###

assay_name: Stability in Sprague-Dawley rat hepatocyte after 24 hrs
Assay type: ADME, cell-based
experimental_parameters: hepatocytes, read-out: Stability
measured_endpoint: remaining at 24 h (%)

                                   molecule  reading
0  COC(=O)N[C@H]1CCN(C(=O)N2CCN(n3c(C(C)N(C(=O)Nc4ccc(F)cc4)c4ccc(OC)cc4OC)nc4ccccc4c3=O)CC2)C1 (some centres not stated)       23
1  COc1ccc(N(C(=O)Nc2ccc(F)cc2)C(C)c2nc3ccccc3c(=O)n2N2CCN(C)CC2)c(OC)c1 (configuration not stated)       18
2  COC(=O)N[C@H](C)C(=O)N1CCN(n2c(C(C)N(C(=O)Nc3ccc(F)cc3)c3ccc(OC)cc3OC)nc3ccccc3c2=O)CC1 (some centres not stated)        7
3  COC(=O)N[C@@H](C)C(=O)N1CCN(n2c(C(C)N(C(=O)Nc3ccc(F)cc3)c3ccc(OC)cc3OC)nc3ccccc3c2=O)CC1 (some centres not stated)       39

(P) COc1ccc(N(C(=O)Nc2ccc(F)cc2)C(C)c2nc3ccccc3c(=O)n2N2CCN(C(=O)[C@@H]3CCCN3)CC2)c(OC)c1 (some centres not stated)
(Q) COC(=O)N[C@@H]1CCN(C(=O)N2CCN(n3c(C(C)N(C(=O)Nc4ccc(F)cc4)c4ccc(OC)cc4OC)nc4ccccc4c3=O)CC2)C1 (some centres not stated)
Challenge: Lower value of remaining at 24 h belongs to which: P or Q ? Answer format: the label of the selected item.
Response given: Q
